# System: LOX IMVI melanoma
# assaySummary: NCI tumour cell line growth inhibition, 48 h
Provide the recorded TGI for the entries that follow.

Measured TGI, CCC12CCC(O)C1N(C)CCC2Sc1ccccc1 (stereo not drawn) : > 100 µM

Measured TGI, Cc1ccc(C)c(NC(=O)CC2C(=O)Nc3ccccc3S2(=O)=O)c1 (stereo not drawn) : > 100 µM

Measured TGI, CC(=O)C(C(=N)C#N)C(=O)Nc1ccccc1 (stereo not drawn) : > 100 µM

Measured TGI, COC(=O)CC(SCCO)SCCO : > 100 µM

Measured TGI, Cc1ccc(/C(O)=C/c2nc3ccccc3nc2NC23CC4CC(CC(C4)C2)C3)cc1 : > 10 µM

Measured TGI, CS(=O)(=O)c1ccc(Oc2nccc(-c3c(-c4ccc(F)cc4)ncn3C3CCNCC3)n2)cc1 : > 25 µM

Measured TGI, CCOC(=O)C12C3CCC1C2C(=O)C3 (stereo not drawn) : > 100 µM

Measured TGI, COc1ccc(/C=C\c2cc(OC)c(OC)c(OC)c2)cc1NC(=O)[C@@H](N)CO : > 100 µM

Measured TGI, O=C1c2scc(-c3ccc(F)cc3)c2-n2cccc21 : > 100 µM

Measured TGI, Cc1nc2ccc(S(=O)(=O)Nc3ccccn3)cc2c(=O)n1NS(=O)(=O)c1ccccn1 : > 100 µM

Measured TGI, CC(C)(C)C(=O)Nc1ccccc1Br : > 100 µM

Measured TGI, Cc1cc(N(CCC#N)CCC#N)ccc1N=Nc1ccccc1[N+](=O)[O-] : > 100 µM

Measured TGI, CC(C)SC1SCC2C(=O)N(C)C3(CC3C)C(=O)OCC(NC(=O)c3nc4ccccc4cc3O)C(=O)NC(C)C(=O)N(C)C1C(=O)N(C)C1(CC1C)C(=O)OCC(NC(=O)c1nc3ccccc3cc1O)C(=O)NC(C)C(=O)N2C (stereo not drawn) : < 0.0001 µM

Measured TGI, c1ccc2nc3c(nc2c1)sc1nc2ccccc2n13 : > 100 µM

Measured TGI, O=C(O)CSCC(=O)c1ccccc1 : > 100 µM

Measured TGI, Nc1nc([O-])c([I+]c2ccccc2)c(=O)[nH]1 : > 100 µM

Measured TGI, Cc1c(C(=O)N/N=C/c2ccc(O)cc2)nnn1-c1ccnc2c(C(F)(F)F)cccc12 : > 100 µM

Measured TGI, CC(=O)CC(=O)CCCC(=O)Nc1ccc(Cl)cc1Cl : > 100 µM

Measured TGI, CN(O)C(=O)c1ccc(OCc2cccc(Cl)c2)cc1 : > 100 µM

Measured TGI, O=NN(CCCl)C(=O)NCc1ccc[n+]([O-])c1 : > 100 µM

Measured TGI, CN1NC2=NCCN=C3NN(C)C(=NCCN=C1S2)S3 : > 100 µM

Measured TGI, O=C1C2c3[nH]c4ccccc4c3C3CCSCC3C2C(=O)N1c1ccccc1 (stereo not drawn) : > 100 µM

Measured TGI, Cc1cccc2c1CC(C1OC(=O)c3c(C)cccc31)C2=O (stereo not drawn) : > 100 µM

---

# Test system: SF-295 CNS
# assaySummary: NCI tumour cell line growth inhibition, 48 h
Provide the recorded TGI for the entries that follow.

Measured TGI, CCOC(=O)NC(Nc1cccc(F)c1)(C(F)(F)F)C(F)(F)F : > 100 µM

Measured TGI, O=S(=O)(O)c1cc(S(=O)(=O)O)c2c(N=Nc3ccccc3)c(O)ccc2c1 : > 100 µM

Measured TGI, CNc1nc2c(C)ccc3nc(N(C)C)nc-3c2n1C : > 10 µM

Measured TGI, CC1=CCP(C(F)(F)F)P(C(F)(F)F)C1 (centres undefined) : > 100 µM

Measured TGI, NS(=O)(=O)c1ccc(NC(=S)/N=C/c2c(O)c3ccccc3[nH]c2=O)cc1 : > 100 µM

Measured TGI, O=C(Nc1cccc(C2=NCCN2)c1)c1ccc(OCCCOc2ccc(C(=O)Nc3cccc(C4=NCCN4)c3)cc2)cc1 : > 100 µM

Measured TGI, C=C[C@@]1(C)CC(=O)[C@]2(O)[C@@]3(C)[C@@H](OC(C)=O)CCC(C)(C)[C@@H]3[C@H](O)[C@H](OC(C)=O)[C@@]2(C)O1 : > 100 µM

Measured TGI, CN(O)C(=O)c1ccc(OCc2cccc(Cl)c2)cc1 : > 82.8 µM

Measured TGI, COc1ccc(-c2cc(-c3ccccc3)c3c(n2)-c2ccccc2NC(=O)C3)cc1 : > 100 µM
